Entry source: PubChem BioAssay AID1845208

- System: NCI-H196 SCLC complex tumor spheroid viability
- TEST SUMMARY: Anticancer human tumor NCI-H196 cell line growth inhibition;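 also: spheroids exposed to compounds for 7 days before readout; 100% = DMSO vehicle control wells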
- STUDY CONDITIONS: second compound 94.9 pM; first compound 10 µM; hits give low values
In this section we review reported viability, T/C values for a set of molecules.

Q. Fill in viability, T/C for record [2H]c1nc(C)nc([2H])c1-c1cc(NC[C@@H](C)c2cccc3c(C(=O)NC)ccnc23)ncn1 + COc1cc2c(cc1O)CCNC21CSC2c3c(OC(C)=O)c(C)c4c(c3C(COC1=O)N1C(O)C3Cc5cc(C)c(OC)c(O)c5C(C21)N3C)OCO4
A. 104%

Q. Fill in viability, T/C for record CC(C)n1c(=O)n(C)c2cnc3cc(F)c(-c4ccc(OCCCN5CCCCC5)nc4)cc3c21 + COc1cc2c(cc1O)CCNC21CSC2c3c(OC(C)=O)c(C)c4c(c3C(COC1=O)N1C(O)C3Cc5cc(C)c(OC)c(O)c5C(C21)N3C)OCO4
A. 112%

###

- Test system: NCI-H196 SCLC complex tumor spheroid viability
- TEST SUMMARY: Anticancer human tumor NCI-H196 cell line growth inhibition; active means viability on the fitted dose curve at most 10% of control; inactive means the rest;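 also: spheroids exposed to compounds for 7 days before readout; 100% = DMSO vehicle control wells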
- STUDY CONDITIONS: second compound 0.003 µM; first compound 0.3 µM
In this exercise, the only acceptable responses are active, inactive

# example entries with known answers
{"MOLECULE": "O=C(c1cc(Cc2n[nH]c(=O)c3ccccc23)ccc1F)N1CCN(C(=O)C2CC2)CC1 + COc1cc2c(cc1O)CCNC21CSC2c3c(OC(C)=O)c(C)c4c(c3C(COC1=O)N1C(O)C3Cc5cc(C)c(OC)c(O)c5C(C21)N3C)OCO4", "ASSIGNED LABEL": "active"}
{"MOLECULE": "Cc1sc2c(c1C)C(c1ccc(Cl)cc1)=NC(CC(=O)Nc1ccc(O)cc1)c1nnc(C)n1-2 (stereo not drawn) + COc1cc2c(cc1O)CCNC21CSC2c3c(OC(C)=O)c(C)c4c(c3C(COC1=O)N1C(O)C3Cc5cc(C)c(OC)c(O)c5C(C21)N3C)OCO4", "ASSIGNED LABEL": "active"}

Q. What did the test return for O=C(c1cc(Cc2n[nH]c(=O)c3ccccc23)ccc1F)N1CCN(C(=O)C2CC2)CC1 + CC[C@@]1(O)C(=O)OCc2c1cc1n(c2=O)Cc2cc3c(CN(C)C)c(O)ccc3nc2-1 ?
A. inactive

Q. What did the test return for Cn1ncnc1[C@H]1c2n[nH]c(=O)c3cc(F)cc(c23)N[C@@H]1c1ccc(F)cc1 + COc1cc2c(cc1O)CCNC21CSC2c3c(OC(C)=O)c(C)c4c(c3C(COC1=O)N1C(O)C3Cc5cc(C)c(OC)c(O)c5C(C21)N3C)OCO4 ?
A. active

###

- System: NCI-H196 SCLC complex tumor spheroid viability
- TEST SUMMARY: Anticancer human tumor NCI-H196 cell line growth inhibition;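 also: spheroids exposed to compounds for 7 days before readout; 100% = DMSO vehicle control wells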
- STUDY CONDITIONS: second compound 3.16 µM; first compound 0.0949 µM; hits give low values
- Description: Multicellular complex tumor spheroid response to DNA repair inhibitors in combination with DNA-damaging drugs This study explores the anticancer activities of DNA-damaging drugs and inhibitors of DNA damage repair, both as single agents and in combinations. […] Twenty-six patient-derived or established malignant cell lines were evaluated representing sarcoma, melanoma, small cell lung cancer (SCLC), non-small cell lung cancer (NSCLC), as well as bladder, ovarian and pancreatic cancers. […]
REPORTED PROPERTY: viability, T/C (%)
Value expressed in %; do not type the unit.

{"MOLECULE": "O=C(c1cc(Cc2n[nH]c(=O)c3ccccc23)ccc1F)N1CCN(C(=O)C2CC2)CC1 + Cn1nnc2c(C(N)=O)ncn2c1=O", "viability, T/C / %": 97.7}
{"MOLECULE": "Cn1ncnc1[C@H]1c2n[nH]c(=O)c3cc(F)cc(c23)N[C@@H]1c1ccc(F)cc1 + Cn1nnc2c(C(N)=O)ncn2c1=O", "viability, T/C / %": 104}
{"MOLECULE": "Cc1sc2c(c1C)C(c1ccc(Cl)cc1)=NC(CC(=O)Nc1ccc(O)cc1)c1nnc(C)n1-2 (centres undefined) + Cn1nnc2c(C(N)=O)ncn2c1=O", "viability, T/C / %": 98.8}

Let's switch to this molecule now.
Q. Fill in viability, T/C for record CNCc1ccc(-c2cc(-c3nc(-c4ccc(S(=O)(=O)C(C)C)cc4)cnc3N)on2)cc1 + Cn1nnc2c(C(N)=O)ncn2c1=O
A. 104
